Reference for the values: patent US11365199B2

I'd be grateful if you could share measured pEC50 for these entries.
tested_on: FSHR (Homo sapiens)
Construct: expressed in transfected cells; host or cells: CHO (Cho-FSHR-LUC-1-1-43)
Sequence (P23945 18-695): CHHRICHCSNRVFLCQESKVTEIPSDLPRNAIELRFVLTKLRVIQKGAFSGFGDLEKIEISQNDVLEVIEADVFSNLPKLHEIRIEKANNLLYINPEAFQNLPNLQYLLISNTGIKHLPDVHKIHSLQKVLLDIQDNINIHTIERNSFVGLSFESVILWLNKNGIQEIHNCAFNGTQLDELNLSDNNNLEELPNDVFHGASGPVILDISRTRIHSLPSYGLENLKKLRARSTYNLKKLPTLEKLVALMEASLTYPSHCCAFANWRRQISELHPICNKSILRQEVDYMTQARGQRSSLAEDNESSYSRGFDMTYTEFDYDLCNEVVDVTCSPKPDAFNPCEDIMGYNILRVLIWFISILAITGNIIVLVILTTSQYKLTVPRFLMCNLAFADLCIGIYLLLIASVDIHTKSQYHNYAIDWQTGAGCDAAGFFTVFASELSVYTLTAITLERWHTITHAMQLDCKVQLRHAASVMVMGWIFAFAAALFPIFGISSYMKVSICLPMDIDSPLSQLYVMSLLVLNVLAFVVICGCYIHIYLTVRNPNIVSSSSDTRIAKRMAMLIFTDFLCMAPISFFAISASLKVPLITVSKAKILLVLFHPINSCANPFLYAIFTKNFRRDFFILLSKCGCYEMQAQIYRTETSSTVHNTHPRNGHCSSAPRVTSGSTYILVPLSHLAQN
experiment_notes: EC50 of cyclic AMP production in CHO FSHR cells + EC20 FSH (Assay A)
Format: cell-based
condition_description: CHO FSHR cells + EC20 FSH, cAMP HTRF; read-out: Assay A: EC50 of cyclic AMP production
pEC50: −log10 of the molar value.

q: Identify the measured pEC50 of `[2H]C([2H])([2H])OCC1(N(C(=O)c2nn(-c3ccsc3)c3c2COc2cc(OC)c(-c4ccn(C)n4)cc2-3)C([2H])([2H])[2H])COC1` for FSHR (Homo sapiens).
a: > 7.00

q: Another molecule to look at: `COc1cc2c(cc1C=C(C)C)-c1c(c(C(=O)N3CCOCC3)nn1-c1ccsc1)CO2`
a: 6.00 to 7.00

q: Now consider `COc1cc2c(cc1SCC(C)C)-c1c(c(C(=O)N3CCOCC3(C)C)nn1-c1ccsc1)CO2` .
a: 6.00 to 7.00

q: Cool, now `COc1cc2c(cc1C#N)-c1c(c(C(=O)N(C)C(C)(C)C)nn1-c1ccsc1)CO2`
a: > 7.00

q: // query: `[2H]C([2H])([2H])OCC1(N(C(=O)c2nn(-c3ccsc3)c3c2COc2cc(OC)c(CC(C)C)cc2-3)C([2H])([2H])[2H])COC1`
a: > 7.00

q: And then `COc1cc2c(cc1C=C(C)C)-c1c(c(C(=O)N3CCC[C@H](C(=O)N4CCC4)CC3)nn1-c1ccsc1)CO2` , what is it?
a: 5.30 to 6.00

q: Try this molecule too: `[2H]C([2H])([2H])n1cc(-c2cc3c(cc2OC)OCc2c(C(=O)N4CCOCC4(C)C)nn(-c4ccsc4)c2-3)cn1`
a: > 7.00

q: // next record COc1cc2c(cc1-c1ccn(C)n1)-c1c(c(C(=O)N3CCOCC3C)nn1-c1ccsc1)CO2 (stereo not shown)
a: > 7.00

q: Please do the same for [2H]C([2H])([2H])OCC1(C)CCCN1C(=O)c1nn(-c2ccsc2)c2c1COc1cc(OC)c(C=C(C)C)cc1-2 (stereo not shown) as well.
a: > 7.00

q: Would you mind doing `CCOCn1cc(-c2cc3c(cc2OC)OCc2c(C(=O)N(C)C(C)(C)C)nn(-c4ccsc4)c2-3)nn1` as well?
a: > 7.00

q: Another molecule: `COc1cc2c(cc1-c1cn[nH]c1)-c1c(c(C(=O)N3CCOCC3(C)C)nn1-c1ccsc1)CO2`
a: > 7.00

q: Cool, now [2H]C([2H])([2H])C(C(=O)c1nn(-c2ccsc2)c2c1COc1cc(OC)c(-c3ccn(C)n3)cc1-2)C1(C)CNC1 (stereo not shown)
a: < 5.30

q: Next entry: `COc1cc2c(cc1CC(C)C)-c1c(c(C(=O)N3CCOCC3(C)C)nn1-c1ccsc1)CO2`
a: > 7.00

q: Input `COc1cc2c(cc1C=C(C)C)-c1c(c(C(=O)NCCCNC(C)=O)nn1-c1ccsc1)CO2`
a: < 5.30

q: Another molecule to look at: `COc1cc2c(cc1C1=CCCN(C)C1)-c1c(c(C(=O)N(C)C(C)(C)C)nn1-c1ccsc1)CO2`
a: 6.00 to 7.00

q: Same question for `COc1cc2c(cc1-c1ccn(C)n1)-c1c(c(C(=O)N3CCCC34COC4)nn1-c1ccsc1)CO2` please.
a: 6.00 to 7.00

q: Next molecule: `COc1cc2c(cc1C=C(C)C)-c1c(c(C(=O)N(C)CCCN(C)C(C)=O)nn1-c1ccsc1)CO2`
a: 6.00 to 7.00

q: How about [2H]C([2H])([2H])OCC1(C)CCCN1C(=O)c1nn(-c2ccsc2)c2c1COc1cc(OC)ccc1-2 (stereo not shown) ?
a: 6.00 to 7.00

q: COc1cc2c(cc1-c1ccn(C)c1)-c1c(c(C(=O)N3CCCC3(C)CO)nn1-c1ccsc1)CO2 (stereo not shown) , same question.
a: > 7.00

q: Again, but for `COc1cc2c(cc1-c1ccnn1C)-c1c(c(C(=O)N(C)CC3(C)COC3)nn1-c1ccsc1)CO2`
a: > 7.00

q: Same lookup for COc1cc2c(cc1-c1ccn(C)c1)-c1c(c(C(=O)NC3CC(O)C3)nn1-c1ccsc1)CO2 (stereo not shown) , please.
a: < 5.30

q: Also, `COc1cc2c(cc1-c1ccc(F)s1)-c1c(c(C(=O)N(C)C(C)(C)C)nn1-c1ccsc1)CO2` please.
a: 6.00 to 7.00

q: Same question for `CCn1nc(C)c(-c2cc3c(cc2OC)OCc2c(C(=O)N4CCOCC4(C)C)nn(-c4ccsc4)c2-3)c1C` please.
a: > 7.00

q: Follow-up entry: `COc1cc2c(cc1S(=O)(=O)C(C)C)-c1c(c(C(=O)NC3(CO)COC3)nn1-c1ccsc1)CO2`
a: < 5.30

q: Thanks! And `COc1cc2c(cc1C=C(C)C)-c1c(c(C(=O)N(C)CCN(C)C(C)=O)nn1-c1ccsc1)CO2` ?
a: > 7.00

q: Same read-out for `[2H]C([2H])([2H])N(CCN1CCOC1=O)C(=O)c1nn(-c2ccsc2)c2c1COc1cc(OC)c(-c3cnn(C([2H])([2H])[2H])c3)cc1-2` ?
a: > 7.00

q: What do you get for `COc1cc2c(cc1-c1ncco1)-c1c(c(C(=O)N(C)C(C)(C)C)nn1-c1ccsc1)CO2` ?
a: > 7.00

q: Also check `COc1cc2c(cc1C#N)-c1c(c(C(=O)N3CCOCC3(C)C)nn1-c1ccsc1)CO2`
a: > 7.00
